These measurements were taken from PubChem BioAssay (NCI).

Collected growth values appear next to each entry.
Test system: HL-60(TB) leukemia
assayOverview: NCI-60 one-dose screen, 48 h (100 = growth as untreated, 0 = no growth, -100 = all killed)
experimentalParameters: 10 µM unless noted
This is part of a sample that, as a whole, favours compounds with a hit. Of some 83,000 tested, about 20% had one in any assay.
quantityName: growth (%)

>>> print(df.to_string())
                                    compound  experimentaltarget  unitname  number
 0                O=C(NC1CCCCC1)c1ccc(Cl)cc1  HL-60(TB) leukemia         %    92.8
 1  CC(C)(C)NCC(O)COc1c(Br)c(Br)c(Br)c2c1OC(C)(C)C2 (configuration not stated)  HL-60(TB) leukemia         %   -59.3
 2  C/C=C(\C)C(=O)N[C@H]1CC[C@]2(C)C3CC[C@@]4(C)C(CC[C@@H]4C(C)N(C)C)C3CCC2[C@H]1OC(C)=O (some centres not stated)  HL-60(TB) leukemia         %    18.2
 3  C/C=C/C/C=C/[C@H](C)C[C@H](O)[C@@H]1C[C@@H]2O[C@H]2/C=C/[C@@H]2OC(C)(C)O[C@H]2/C=C/C[C@H](C)CC(=O)O1  HL-60(TB) leukemia         %    31.2
 4  COc1ccc(Cc2nc(C#N)c(N3CCN(c4ccc(F)cc4)CC3)o2)cc1  HL-60(TB) leukemia         %    79.2
 5  CC(C)=CCc1cc(O)c(O)c2oc3cc(O)cc(O)c3c(=O)c12  HL-60(TB) leukemia         %     103
 6  COc1ccc(-n2c(-c3ccc(NC(=O)CCCl)cc3)nnc2-c2cc(OC)c(OC)c(OC)c2)cc1  HL-60(TB) leukemia         %   -12.6
 7  CCC(=O)C(CC)c1cccc(OC)c1 (configuration not stated)  HL-60(TB) leukemia         %    97.5
 8           COc1cc(NC(=O)SC2=NCCS2)cc(OC)c1  HL-60(TB) leukemia         %    90.5
 9              S=C(N/N=C/c1ccccn1)Nc1ccccn1  HL-60(TB) leukemia         %   -13.7
10  COc1c(C)cnc(CSc2nc(-c3ccc(C)cc3)cn2-c2ccc(Cl)cc2)c1C  HL-60(TB) leukemia         %    95.8
11                 Cc1cc(N=O)cc(C(C)(C)C)c1O  HL-60(TB) leukemia         %    99.6

---

Below, each entry is listed alongside its reported growth.
Test system: HL-60(TB) leukemia
assayOverview: NCI-60 one-dose screen, 48 h (100 = growth as untreated, 0 = no growth, -100 = all killed)
experimentalParameters: 10 µM unless noted
About 83,000 compounds went through this panel and 20% of them were active in at least one assay; those are over-represented in the sample as a whole.
quantityName: growth (%)

In [3]: df
Out[3]:
                                    molecule  experimentaltarget  quantityname  number
 0  CC/C(Cc1ccccc1)=C(\c1ccc(OCCCN(C)C)cc1)c1ccc(OC(=O)NCc2ccccc2)cc1  HL-60(TB) leukemia        growth    57.2
 1  CCN1CCN(CC(=O)Nc2ccc(-c3cn4c(n3)sc3cc(Oc5ccnc(C(=O)NC)c5)ccc34)cc2)CC1  HL-60(TB) leukemia        growth   -35.4
 2     O=C(NNc1ccc(-c2ccccc2)nn1)c1ccc(F)cc1  HL-60(TB) leukemia        growth    96.7
 3  CNC(=O)c1[nH]cc(-c2ccc(OC)cc2)c1-c1cc(OC)c2c(c1OC)OCO2  HL-60(TB) leukemia        growth    96.4
 4  Nc1nc2c(c(=O)[nH]1)C1(C(=O)Nc3ccccc31)c1c(nc(N)[nH]c1=O)N2  HL-60(TB) leukemia        growth     108
 5  O=P(O)(O)OCC1OC(n2cnc3c(NCc4ccccc4)ncnc32)C(O)C1O (stereo unspecified)  HL-60(TB) leukemia        growth    26.8
 6  Nc1ccc(N)c2c1C(=O)c1cccc([N+](=O)[O-])c1C2=O  HL-60(TB) leukemia        growth    17.8
 7  Nc1c(Br)cc2c(c1Br)Cc1cc([N+](=O)[O-])ccc1-2  HL-60(TB) leukemia        growth    69.6
 8                 Nc1ccc2cc(Br)c3ccccc3c2c1  HL-60(TB) leukemia        growth    45.6
 9  C=CCOc1ccc(/C(O)=C2\C(=O)C(=O)N(c3nccs3)C2c2ccccc2F)cc1 (stereo unspecified)  HL-60(TB) leukemia        growth    81.1
10  Cn1cc(-c2nc(-c3c[nH]c4ncccc34)cs2)c2cccnc21  HL-60(TB) leukemia        growth    48.1
11  Cc1ccc(-n2c(-c3ccccc3)c(-c3ccccc3)c3c(SCC(=O)n4[nH]c(N)cc4=O)ncnc32)cc1  HL-60(TB) leukemia        growth     102
12  COc1ccc(/C=C/C(=O)c2ccc(NC(=O)CSc3nc4c([nH]3)c(=O)n(C)c(=O)n4C)cc2)cc1OC  HL-60(TB) leukemia        growth    99.5
13  CN(C)CCN1C(=O)c2cccc3c(/C=C/CN4C(=O)c5cccc6cccc(c56)C4=O)ccc(c23)C1=O  HL-60(TB) leukemia        growth    12.9
14               S=c1nc2[nH]c3ccccc3c2n[nH]1  HL-60(TB) leukemia        growth     148
15  C=C1c2c(Cl)ccc(O)c2C(O)=C2C(=O)[C@]3(O)C(O)=C(C(N)=O)C(=O)[C@@H](N(C)C)[C@@H]3[C@@H](O)[C@H]12  HL-60(TB) leukemia        growth   -24.8

---

Tested on: SK-MEL-28 melanoma
assayOverview: NCI-60 one-dose screen, 48 h (100 = growth as untreated, 0 = no growth, -100 = all killed)
experimentalParameters: 10 µM unless noted
The panel holds about 83,000 compounds, 20% with a hit somewhere; the sample as a whole holds those more often.
quantityName: growth (%)

>>> print(df.to_string())
                                    molecule  number
 0  COc1cc(C2=NN(c3ccccc3)C(c3sc(N(CCCl)CCCl)nc3Cl)C2)cc(OC)c1OC (centres undefined)    99.1
 1                   CC(C)(C)N(Cc1ccccc1)N=O     106
 2                 Clc1ccc(SSC(Cl)(Cl)Cl)cc1     120
 3                      O=C(CI)Nc1ccc(Br)cc1     109
 4  ClCCN(CCCl)c1nc(Cl)c(C2CC(c3ccc(Cl)cc3)=NN2c2cc(Cl)cc(Cl)c2)s1 (centres undefined)     121
 5  CC(CC(C#N)(c1ccccc1)c1ccccc1)N1CCOCC1 (centres undefined)     123
 6        O=C(O)c1nn(Cc2ccc(Cl)cc2)c2ccccc12     119
 7  O=C(O)CC(Br)C(=O)CBr (centres undefined)     102
 8                S=P(NC1CCCCC1)(N1CC1)N1CC1     122
 9  CC12CC[C@H](O)C=C1/C(=N/O)CC1C2CCC2(C)C1CC[C@@H]2O (some centres undefined)     103
10  Cc1ccc(C[As+](c2ccccc2)(c2ccccc2)c2ccccc2)cc1    37.2
11  CCOc1c(Cl)cc(CNC(C)C(O)c2ccccc2)cc1OC (centres undefined)    41.5
12           O=C1c2ccccc2C(=O)N1[N+](=O)[O-]     112
13  COc1ccc(C2SCC(=O)Nc3c2c(C)nn3-c2nc3ccc(C)cc3s2)cc1O (centres undefined)    51.1
14  CC(C)C1c2ccc(O)cc2Oc2nc(N)c(C#N)c(N)c21 (centres undefined)     117
15            CC(=O)C1C(=O)N(C)C(=O)N(C)C1=O     106
16                 N#CC(C#N)=Cc1ccc2ccccc2c1     113
17          CC1COC(=O)C1 (centres undefined)     103
18  Cc1ccc(N)cc1[As]=[As]c1cc(N)ccc1C (centres undefined)   -94.2
19               COC(=O)C(=[N+]=[N-])C(=O)OC     105
20  OC1(c2ccc(Cl)cc2Cl)c2ccccc2C2=NCCN21 (centres undefined)     111
21  CC[CH2][Pb]([CH2]CC)([CH2]CC)[O]C(=O)C(F)(F)F   -97.2
22             O=C(O)c1[nH]c(=O)[nH]c(=O)c1F    94.7
23  C/C(=C\C(=O)O[C@H]1[C@@H]2[C@H](C)CC[C@H]2[C@]2(C)O[C@@]1(C1CCCCC1)C[C@H]2OC(=O)CO)c1ccccc1    64.6
24                 CC1(C)CC(=O)CC(C)(C)N1N=O     109
25  CCC(CC)(c1ccccc1)C(OC(N)=O)c1ccccc1 (centres undefined)    85.4
26         Nc1c(Br)cc2c3c(cccc13)-c1ccccc1-2    99.7
27  OC1CCCCC1N1CCC(c2ccccc2)CC1 (centres undefined)     103
28  CC(=O)N1N=C(c2ccccc2)CC1c1sc(N(CCCl)CCCl)nc1Cl (centres undefined)     108
29  CCOC(=O)C1(c2ccccc2)CCN(CC(=O)c2ccc(NC(C)=O)cc2)CC1     124
30  Cc1cc(NC(=O)CCc2ccc(N3C(N)=NC(N)=NC3(C)C)cc2)ccc1S(=O)(=O)F    53.9
31           NC(=O)OCC(CO)(c1ccccc1)c1ccccc1     112
32  CCCCN(CCCC)CC(O)c1ccccc1 (centres undefined)     103
33         C1CNC2CCCC2C1 (centres undefined)     111
